Source: ChEMBL document CHEMBL3045086

- Study target: Alpha-glucosidase MAL62 (Saccharomyces cerevisiae)
- Measurement protocol: Inhibition of baker's yeast alpha-glucosidase using p-nitrophenyl-alpha-D-glucopyranoside as substrate by spectrophotometry
Readout kind: logIC50
No unit in the answer, only the number.

Past entries and their recorded results:
{"Compound": "O=c1c(O)c(-c2ccc(O)cc2)oc2cc(O)cc(O)c12", "Study target": "Alpha-glucosidase MAL62 (Saccharomyces cerevisiae)", "logIC50": 1.08}
{"Compound": "O=C(O)/C=C/c1ccc(Oc2ccccc2)cc1", "Study target": "Alpha-glucosidase MAL62 (Saccharomyces cerevisiae)", "logIC50": 2.64}
{"Compound": "CC(C)=CCc1cc(C2CCc3ccc(O)cc3O2)c(CC=C(C)C)c(O)c1O (stereo unspecified)", "Study target": "Alpha-glucosidase MAL62 (Saccharomyces cerevisiae)", "logIC50": 1.08}
{"Compound": "C=CC(C)(C)c1c(O)cc(O)c2c(=O)c3oc4c5c(c(OCC=C(C)C)cc4c3oc12)OC(C)(C)C=C5", "Study target": "Alpha-glucosidase MAL62 (Saccharomyces cerevisiae)", "logIC50": 1.44}
{"Compound": "OC[C@H]1OC(OC2=C(c3cc(O)c(O)c(O)c3)Oc3cc(O)cc(O)c3C2)[C@@H](O)[C@@H](O)[C@@H]1O (stereo partly specified)", "Study target": "Alpha-glucosidase MAL62 (Saccharomyces cerevisiae)", "logIC50": 1.48}

logIC50 in this record for O=c1cc(-c2ccc(O)c(O)c2)oc2cc(O)cc(O)c12 : 1.32

logIC50 in this record for O=c1c(-c2ccc(O)cc2)coc2cc(O)ccc12 : 1.15

----------
- Study target: Alpha-glucosidase MAL62 (Saccharomyces cerevisiae)
- Measurement protocol: Inhibition of baker's yeast alpha-glucosidase using p-nitrophenyl-alpha-D-glucopyranoside as substrate by spectrophotometry
Readout kind: logIC50
No unit in the answer, only the number.

{"Compound": "CC(C)=CCc1cc(C2CCc3ccc(O)cc3O2)cc(O)c1O (stereo not drawn)", "logIC50": 1.88}
{"Compound": "O=c1c(-c2ccc(O)cc2)coc2cc(O)cc(O)c12", "logIC50": 0.845}
{"Compound": "CC(C)=CCc1cc(-c2oc3cc(O)c(CC=C(C)C)c(O)c3c(=O)c2O)cc(O)c1O", "logIC50": 0.322}
{"Compound": "O=C(O)/C=C/c1ccc(Cl)cc1", "logIC50": 2.59}
{"Compound": "CC1(C)C=Cc2cc(C(=O)/C=C/c3ccc(O)c(O)c3)c(O)cc2O1", "logIC50": 1.28}
{"Compound": "O=C(O)c1cc(O)c(O)c(O)c1", "logIC50": 0.716}
{"Compound": "O=C(O)/C=C/c1cccc(O)c1", "logIC50": 3.1}
{"Compound": "COc1ccc(/C=C/C(=O)O)cc1", "logIC50": 1.6}

logIC50 in this record for C=CC(C)(C)c1c(O)cc(O)c2c(=O)c(O)c(-c3cc(O)c(O)c(CC=C(C)C)c3)oc12 : 0.556

logIC50 in this record for Oc1cc(O)c2cc(O)c(-c3ccc(O)c(O)c3)[o+]c2c1 : 0.602

logIC50 in this record for O=c1c(O)c(-c2ccc(O)c(O)c2)oc2cc(O)cc(O)c12 : 0.845

logIC50 in this record for COc1cccc(/C=C/C(=O)O)c1 : 2.76

logIC50 in this record for Oc1cc(O)c2c(c1)OC(c1cc(O)c(O)c(O)c1)C(O)C2 (stereo not drawn) : 1.88

----------
- Study target: Alpha-glucosidase MAL62 (Saccharomyces cerevisiae) (UniProt P07265)
- Sequence (P07265 whole entry): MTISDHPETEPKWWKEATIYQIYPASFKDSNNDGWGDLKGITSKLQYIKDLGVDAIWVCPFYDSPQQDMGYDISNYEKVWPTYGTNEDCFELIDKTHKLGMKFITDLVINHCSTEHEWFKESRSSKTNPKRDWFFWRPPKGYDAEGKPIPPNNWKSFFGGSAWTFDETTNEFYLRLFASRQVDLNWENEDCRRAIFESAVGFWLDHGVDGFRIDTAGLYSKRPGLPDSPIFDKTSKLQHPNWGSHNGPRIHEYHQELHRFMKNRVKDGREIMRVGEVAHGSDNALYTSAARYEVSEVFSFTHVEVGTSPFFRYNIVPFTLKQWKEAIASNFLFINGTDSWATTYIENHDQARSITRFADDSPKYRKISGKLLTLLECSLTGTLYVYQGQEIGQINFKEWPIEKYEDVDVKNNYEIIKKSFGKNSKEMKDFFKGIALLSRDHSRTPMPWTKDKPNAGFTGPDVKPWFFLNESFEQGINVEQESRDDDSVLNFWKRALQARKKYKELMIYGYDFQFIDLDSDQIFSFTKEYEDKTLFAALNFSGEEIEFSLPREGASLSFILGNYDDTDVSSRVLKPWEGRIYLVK
- Measurement protocol: Inhibition of baker's yeast alpha-glucosidase using p-nitrophenyl-alpha-D-glucopyranoside as substrate by spectrophotometry
// logIC50 lookup, one value per entry
No unit in the answer, only the number.

Past entries and their recorded results:
{"Compound": "C=C(C)C(CC=C(C)C)Cc1c(O)cc(OC)c2c1OC(c1ccc(OC)cc1O)CC2=O (centres undefined)", "Readout kind": "logIC50", "Recorded value": 2.19}
{"Compound": "COc1ccc([C@@H]2CC(=O)c3c(O)cc(O)cc3O2)cc1O", "Readout kind": "logIC50", "Recorded value": 2.18}
{"Compound": "O=c1c(O)c(-c2cc(O)c(O)c(O)c2)oc2cc(O)cc(O)c12", "Readout kind": "logIC50", "Recorded value": 0.699}
{"Compound": "C=CC(C)(C)c1cc2c(cc1O)OC(c1cc(O)c(O)c(CC=C(C)C)c1C/C=C\\C)CC2 (centres undefined)", "Readout kind": "logIC50", "Recorded value": 1.02}
{"Compound": "COC(=O)c1cc(O)c(O)c(O)c1", "Readout kind": "logIC50", "Recorded value": 1.06}
{"Compound": "O=C1C[C@@H](c2ccc(O)cc2)Oc2cc(O)cc(O)c21", "Readout kind": "logIC50", "Recorded value": 1.88}

logIC50 in this record for C=C(C)C(CC=C(C)C)Cc1c(O)cc(OC)c2c1OC(c1ccc(O)cc1O)CC2=O (centres undefined) : 1.83

----------
- Study target: Alpha-glucosidase MAL62 (Saccharomyces cerevisiae) (UniProt P07265)
- Measurement protocol: Inhibition of baker's yeast alpha-glucosidase using p-nitrophenyl-alpha-D-glucopyranoside as substrate by spectrophotometry
// logIC50 lookup, one value per entry
No unit in the answer, only the number.

Past entries and their recorded results:
{"Compound": "C=C(C)C(CC=C(C)C)Cc1c(O)cc(O)c2c1OC(c1ccccc1O)CC2=O (stereo not given)", "logIC50": 1.65}
{"Compound": "O=C(OC1Cc2c(O)cc(O)cc2OC1c1cc(O)c(O)c(O)c1)c1cc(O)c(O)c(O)c1 (stereo not given)", "logIC50": 0.301}
{"Compound": "CC1(C)C=Cc2cc(C(=O)/C=C/c3ccc(O)cc3)c(O)cc2O1", "logIC50": 1.09}
{"Compound": "CC(C)=CCc1cc(C(=O)/C=C/c2ccc(O)c(O)c2)c(O)cc1O", "logIC50": 0.724}
{"Compound": "O=C(O)/C=C/c1ccc(F)cc1", "logIC50": 2.43}
{"Compound": "O=c1c(O)c(-c2ccc(O)c(O)c2)oc2cc(O)ccc12", "logIC50": 1.11}

logIC50 in this record for CCOC(=O)/C=C/c1ccc(OC)cc1 : 1.7

logIC50 in this record for OC[C@H]1OC(OC2=C(c3ccc(O)c(O)c3)Oc3cc(O)cc(O)c3C2)[C@@H](O)[C@@H](O)[C@@H]1O (stereo not given in full) : 1.3

logIC50 in this record for C=C(C)C(CC=C(C)C)Cc1c(O)cc(O)c2c1OC(c1ccc(O)cc1O)CC2=O (stereo not given) : 1.57

logIC50 in this record for O=c1c(O)c(-c2ccc(O)cc2O)oc2cc(O)cc(O)c12 : 1.6

----------
- Study target: Alpha-glucosidase MAL62 (Saccharomyces cerevisiae)
- Measurement protocol: Inhibition of baker's yeast alpha-glucosidase using p-nitrophenyl-alpha-D-glucopyranoside as substrate by spectrophotometry
logIC50 vs 2: less than gives class 1; not less than gives class 0.

{"Compound": "CC(C)=CCc1cc(C(=O)/C=C/c2ccc(O)cc2)c(O)cc1O", "Study target": "Alpha-glucosidase MAL62 (Saccharomyces cerevisiae)", "Class name": "class 1"}

# input Lab log: compare recorded logIC50 with 2; is it strictly lower for Oc1cc(O)c2c(c1)OC(c1ccc(O)c(O)c1)C(O)C2 (configuration not stated) ?
# output class 0

# input Lab log: compare recorded logIC50 with 2; is it strictly lower for COc1cc(O)c(C(C)=C(C)C)c2c1C(=O)CC(c1ccc(O)cc1)O2 (configuration not stated) ?
# output class 0

# input Lab log: compare recorded logIC50 with 2; is it strictly lower for C=CC(C)(C)c1c(O)cc(O)c2c(=O)c3oc4c(CC=C(C)C)c(O)c(OCC=C(C)C)cc4c3oc12 ?
# output class 1

# input Lab log: compare recorded logIC50 with 2; is it strictly lower for O=C(O)/C=C/c1ccc(O)cc1 ?
# output class 0

# input Lab log: compare recorded logIC50 with 2; is it strictly lower for CC(C)=CCc1c(C2CCc3ccc(O)cc3O2)cc2c(c1O)OC(C)(C)C=C2 (configuration not stated) ?
# output class 1

# input Lab log: compare recorded logIC50 with 2; is it strictly lower for C=C(C)C(CCC(C)(C)O)Cc1c(O)cc(OC)c2c1OC(c1ccc(O)cc1O)CC2=O (configuration not stated) ?
# output class 0
